experiment description: Clearance in dog at 3 mg/kg, po or 1 mg/kg, iv
Format: ADME, organism-based, Canis lupus familiaris
condition description: in vivo
result type: clearance
Kindly report the value followed by its unit.

Task item: Fill in: clearance of CC[C@@H]1C[C@H](C)CC/C=C\[C@@H]2C[C@@]2(C(=O)NS(=O)(=O)C2(C)CC2)NC(=O)[C@@H]2C[C@@H](Oc3nccc4cc(OC)c(F)cc34)CN2C(=O)[C@H]1NC(=O)OC(C)(C)C(F)(F)F is ___
Reply: 0.018 L/h/kg

Task item: Fill in: clearance of C=C[C@@H]1C[C@]1(NC(=O)[C@@H]1C[C@@H](Oc2ncc(OC)c3ccc(Cl)cc23)CN1C(=O)[C@@H](NC(=O)OC(C)(C)C)C(C)(C)C)C(=O)NS(=O)(=O)C1CC1 is ___
Reply: 1.12 L/h/kg

Task item: Fill in: clearance of [2H]C([2H])([2H])Oc1cc2ccnc(O[C@@H]3C[C@H]4C(=O)N[C@]5(C(=O)NS(=O)(=O)C6(C)CC6)C[C@H]5/C=C\CC[C@@H](C)C[C@@H](CC)[C@H](NC(=O)OC(C)(C)C(F)(F)F)C(=O)N4C3)c2cc1F is ___
Reply: 0.066 L/h/kg

Task item: Fill in: clearance of CC[C@@H]1C[C@H](C)CC/C=C\[C@@H]2C[C@@]2(C(=O)NS(=O)(=O)C2(C)CC2)NC(=O)[C@@H]2C[C@@H](Oc3ncc(OC)c4ccc(F)cc34)CN2C(=O)[C@H]1NC(=O)OC(C)(C)C(F)(F)F is ___
Reply: 0.036 L/h/kg

====

experiment description: Inhibition of recombinant full length NS3/4A D168V mutant protease in Hepatitis C virus subtype 1b replicon infected in human HuH7 cells preincubated for 3 days followed by substrate addition and measured after 2 hrs by renilla luciferase reporter gene assay
Format: cell-based
condition description: Huh-7
Field: pEC50. Provide a value for each of the compounds that follow.
Formally, pEC50 is defined as -log10 of the concentration c, with c in mol/L.

Task item: Fill in: pEC50 of C=C[C@@H]1C[C@]1(NC(=O)[C@@H]1C[C@@H](Oc2ncc(OC)c3ccc(Cl)cc23)CN1C(=O)[C@@H](NC(=O)OC(C)(C)C)C(C)(C)C)C(=O)NS(=O)(=O)C1CC1 is ___
Reply: 6.73

Task item: Fill in: pEC50 of CC[C@@H]1C[C@H](C)CC/C=C\[C@@H]2C[C@@]2(C(=O)NS(=O)(=O)C2(C)CC2)NC(=O)[C@@H]2C[C@@H](Oc3nccc4cc(O)c(F)cc34)CN2C(=O)[C@H]1NC(=O)OC(C)(C)C(F)(F)F is ___
Reply: 8.02

Task item: Fill in: pEC50 of CC[C@@H]1C[C@H](C)CC/C=C\[C@@H]2C[C@@]2(C(=O)NS(=O)(=O)C2(C)CC2)NC(=O)[C@@H]2C[C@@H](Oc3ncc(OC)c4ccc(F)cc34)CN2C(=O)[C@H]1NC(=O)OC(C)(C)C(F)(F)F is ___
Reply: 8.05

====

experiment description: Half life in rat at 1 mg/kg, iv
Type: ADME, organism-based
condition description: in vivo
result type: half-life (h)
Numbers only here, please. The scale is h.

Task item: Fill in: half-life of CC[C@@H]1C[C@H](C)CC/C=C\[C@@H]2C[C@@]2(C(=O)NS(=O)(=O)C2CC2)NC(=O)[C@@H]2C[C@@H](Oc3ncc(OC)c4ccccc34)CN2C(=O)[C@H]1NC(=O)OC(C)(C)C(F)(F)F is ___
Reply: 4.8

Task item: Fill in: half-life of CC[C@@H]1C[C@H](C)CC/C=C\[C@@H]2C[C@@]2(C(=O)NS(=O)(=O)C2(C)CC2)NC(=O)[C@@H]2C[C@@H](Oc3ncc(OC)c4ccccc34)CN2C(=O)[C@H]1NC(=O)OC(C)(C)C(F)(F)F is ___
Reply: 7.3

Task item: Fill in: half-life of CC[C@@H]1C[C@H](C)CC/C=C\[C@@H]2C[C@@]2(C(=O)NS(=O)(=O)C2(C)CC2)NC(=O)[C@@H]2C[C@@H](Oc3nccc4cc(OC)c(F)cc34)CN2C(=O)[C@H]1NC(=O)OC(C)(C)C(F)(F)F is ___
Reply: 9.3

Task item: Fill in: half-life of CC[C@@H]1C[C@H](C)CC/C=C\[C@@H]2C[C@@]2(C(=O)NS(=O)(=O)C2(C)CC2)NC(=O)[C@@H]2C[C@@H](Oc3ncc(OC)c4ccc(F)cc34)CN2C(=O)[C@H]1NC(=O)OC(C)(C)C(F)(F)F is ___
Reply: 7.9

Task item: Fill in: half-life of COc1cnc(O[C@@H]2C[C@H]3C(=O)N[C@]4(C(=O)NS(=O)(=O)C5(C)CC5)C[C@H]4/C=C\CC[C@@H](C)C[C@@H](C)[C@H](NC(=O)OC(C)(C)C(F)(F)F)C(=O)N3C2)c2ccccc12 is ___
Reply: 5.7

====

experiment description: Clearance in rat at 5 mg/kg, iv
Format: ADME, organism-based
condition description: in vivo
result type: clearance (mL/min/kg)
Numbers only here, please. The scale is mL/min/kg.

Task item: Fill in: clearance of COc1cnc(O[C@@H]2C[C@H]3C(=O)N[C@]4(C(=O)NS(=O)(=O)C5CC5)C[C@H]4/C=C\CC[C@@H](C)C[C@@H](C)[C@H](NC(=O)OC(C)(C)C(F)(F)F)C(=O)N3C2)c2ccccc12 is ___
Reply: 4.2

====

experiment description: Cytotoxicity against human MT2 cells assessed as reduction in cell viability
Assay type: cell-based
result type: CC50
Kindly report the value followed by its unit.

Task item: Fill in: CC50 of [2H]C([2H])([2H])Oc1cc2ccnc(O[C@@H]3C[C@H]4C(=O)N[C@]5(C(=O)NS(=O)(=O)C6(C)CC6)C[C@H]5/C=C\CC[C@@H](C)C[C@@H](CC)[C@H](NC(=O)OC(C)(C)C(F)(F)F)C(=O)N4C3)c2cc1F is ___
Reply: 34 µM

====

experiment description: Inhibition of recombinant full length NS3/4A protease in Hepatitis C virus subtype 3a infected in human HuH7 cells using Ac-Asp-Glu-Asp (EDANS)-Glu-Glu-Abu-(COO) Ala-Ser-Lys (DABCYL)-NH2 as substrate by FRET assay
condition description: Huh-7
result type: IC50 (nM)
Numbers only here, please. The scale is nM.

Task item: Fill in: IC50 of CC[C@@H]1C[C@H](C)CC/C=C\[C@@H]2C[C@@]2(C(=O)NS(=O)(=O)C2CC2)NC(=O)[C@@H]2C[C@@H](Oc3ncc(OC)c4ccccc34)CN2C(=O)[C@H]1NC(=O)OC(C)(C)C(F)(F)F is ___
Reply: 1.2

Task item: Fill in: IC50 of COc1cnc(O[C@@H]2C[C@H]3C(=O)N[C@]4(C(=O)NS(=O)(=O)C5(C)CC5)C[C@H]4/C=C\CC[C@@H](C)C[C@@H](C)[C@H](NC(=O)OC(C)(C)C(F)(F)F)C(=O)N3C2)c2ccccc12 is ___
Reply: 0.9

Task item: Fill in: IC50 of COc1cnc(O[C@@H]2C[C@H]3C(=O)N[C@]4(C(=O)NS(=O)(=O)C5CC5)C[C@H]4/C=C\CCCCC[C@H](NC(=O)OC(C)(C)C)C(=O)N3C2)c2cc(Cl)ccc12 is ___
Reply: 51

Task item: Fill in: IC50 of C=C[C@@H]1C[C@]1(NC(=O)[C@@H]1C[C@@H](Oc2ncc(OC)c3ccc(Cl)cc23)CN1C(=O)[C@@H](NC(=O)OC(C)(C)C)C(C)(C)C)C(=O)NS(=O)(=O)C1CC1 is ___
Reply: 395

====

Field: EC50. Provide a value for each of the molecules that follow.
experiment description: Inhibition of recombinant full length NS3/4A D168V mutant protease in Hepatitis C virus subtype 1b replicon infected in human HuH7 cells preincubated for 3 days followed by substrate addition and measured after 2 hrs by renilla luciferase reporter gene assay
Type: cell-based
condition description: Huh-7
Numbers only here, please. The scale is nM.

Task item: Fill in: EC50 of COc1cnc(O[C@@H]2C[C@H]3C(=O)N[C@]4(C(=O)NS(=O)(=O)C5CC5)C[C@H]4/C=C\CCCC[C@@H](C)[C@H](NC(=O)OC(C)(C)C)C(=O)N3C2)c2cc(Cl)ccc12 is ___
Reply: 1.9

Task item: Fill in: EC50 of [2H]C([2H])([2H])Oc1cc2ccnc(O[C@@H]3C[C@H]4C(=O)N[C@]5(C(=O)NS(=O)(=O)C6(C)CC6)C[C@H]5/C=C\CC[C@@H](C)C[C@@H](CC)[C@H](NC(=O)OC(C)(C)C(F)(F)F)C(=O)N4C3)c2cc1F is ___
Reply: 5.8

====

experiment description: Drug concentration in rat liver at 5 mg/kg, po measured upto 24 hrs
Format: ADME, organism-based
condition description: read-out: Ct
result type: concentration at 24 h
Kindly report the value followed by its unit.

Task item: Fill in: concentration at 24 h of CC[C@@H]1C[C@H](C)CC/C=C\[C@@H]2C[C@@]2(C(=O)NS(=O)(=O)C2CC2)NC(=O)[C@@H]2C[C@@H](Oc3ncc(OC)c4ccccc34)CN2C(=O)[C@H]1NC(=O)OC(C)(C)C(F)(F)F is ___
Reply: 2360 nM

Task item: Fill in: concentration at 24 h of CC[C@@H]1C[C@H](C)CC/C=C\[C@@H]2C[C@@]2(C(=O)NS(=O)(=O)C2(C)CC2)NC(=O)[C@@H]2C[C@@H](Oc3ncc(OC)c4ccccc34)CN2C(=O)[C@H]1NC(=O)OC(C)(C)C(F)(F)F is ___
Reply: 2670 nM

Task item: Fill in: concentration at 24 h of C=C[C@@H]1C[C@]1(NC(=O)[C@@H]1C[C@@H](Oc2ncc(OC)c3ccc(Cl)cc23)CN1C(=O)[C@@H](NC(=O)OC(C)(C)C)C(C)(C)C)C(=O)NS(=O)(=O)C1CC1 is ___
Reply: 15000 nM
